- Assay protocol: Toxicity liver stage against HepG2, at 10uM
- Assay type: cell-based
- Parameters: test concentration 10 uM, cell line HepG2-A16-CD81EGFP
- Condition context: human, HepG2-A16-CD81EGFP cells; read-out: INHIBITION
Property measured: cytotoxicity at 10 µM
Include the unit after the number when you answer.

Return the recorded cytotoxicity at 10 µM value; entry: CN1CCOC[C@H]1c1nc(-c2cccc(F)c2)c[nH]1
-3.68%

Return the recorded cytotoxicity at 10 µM value; entry: CCCn1cnnc1CNC(=O)CC1C(=O)NCCN1CC(C)(C)C (configuration not stated)
-0.798%

Return the recorded cytotoxicity at 10 µM value; entry: CNC(=O)CCN1CCCCCC1c1ccc(C)o1 (configuration not stated)
-10.2%

Return the recorded cytotoxicity at 10 µM value; entry: CC(Cn1cc(Cl)cn1)C(=O)Nc1ccc(CN2CCCCCC2)cc1 (configuration not stated)
8.66%

Return the recorded cytotoxicity at 10 µM value; entry: CCCc1n[nH]c(C2CN(CCc3cccs3)CCO2)n1 (configuration not stated)
4.1%

Return the recorded cytotoxicity at 10 µM value; entry: Fc1ccc(CN2CCCC(c3nccnc3-n3ccnc3)C2)cc1 (configuration not stated)
-20.4%

Return the recorded cytotoxicity at 10 µM value; entry: CCn1nc(C)c(CCn2ccnc2-c2cc3n(n2)CCCNC3)c1C
-2.1%

Return the recorded cytotoxicity at 10 µM value; entry: COc1ccc(C(=O)Nc2c(C)nc3cccc(C)n3c2=O)cc1
8.1%

Return the recorded cytotoxicity at 10 µM value; entry: CC(C)Cn1cncc1CNC1CCSCC1
-4.11%

Return the recorded cytotoxicity at 10 µM value; entry: CCOc1ccc(NC(C)=O)cc1S(=O)(=O)Nc1ccon1
-10.8%

Return the recorded cytotoxicity at 10 µM value; entry: Cc1n[nH]c(C)c1CC(=O)N1CCN(C)C2(CCNC(=O)CC2)C1 (configuration not stated)
2.65%

Return the recorded cytotoxicity at 10 µM value; entry: COCCN1CCCC(CCCc2ccccn2)(C(N)=O)C1 (configuration not stated)
-16%

Recorded values, source ChEMBL document CHEMBL4513216.
